Values were extracted from patent US6461997B1.

test system: SOLNI (black nightshade); test: Pre-plant incorporated (PPI) herbicidal activity, warm season; type: in vivo, Solanum nigrum; details: pre-plant incorporated; GR80 = lowest tested rate with 80% or greater inhibition; approx. 14 days after treating; 30/21° C.

>  <compoundStructureString>
C=C(C)CC(F)(F)S(=O)(=O)c1ncn(C(=O)N(CC)CC)n1

>  <assayedSystem>
SOLNI (black nightshade)

>  <PPI activity (GR80) SOLNI>
300 g/ha

$$$$
>  <compoundStructureString>
C=CCC(F)(F)S(=O)(=O)c1ncn(C(=O)N(CC)CC)n1

>  <assayedSystem>
SOLNI (black nightshade)

>  <PPI activity (GR80) SOLNI>
30 g/ha

$$$$
>  <compoundStructureString>
CCN(CC)C(=O)n1cnc(S(=O)(=O)C(F)(F)SCCOC)n1

>  <assayedSystem>
SOLNI (black nightshade)

>  <PPI activity (GR80) SOLNI>
100 g/ha

$$$$
>  <compoundStructureString>
CCN(CC)C(=O)n1cnc(S(=O)(=O)C(F)(F)C(=O)c2ccccc2)n1

>  <assayedSystem>
SOLNI (black nightshade)

>  <PPI activity (GR80) SOLNI>
100 g/ha

$$$$
>  <compoundStructureString>
C=C(CC(F)(F)S(=O)(=O)c1ncn(C(=O)N(CC)CC)n1)C[Si](C)(C)C

>  <assayedSystem>
SOLNI (black nightshade)

>  <PPI activity (GR80) SOLNI>
100 g/ha

$$$$
>  <compoundStructureString>
CCN(CC)C(=O)n1cnc(S(=O)(=O)C(F)(F)Br)n1

>  <assayedSystem>
SOLNI (black nightshade)

>  <PPI activity (GR80) SOLNI>
30 g/ha

$$$$
>  <compoundStructureString>
CCSC(F)(F)S(=O)(=O)c1ncn(C(=O)N(CC)CC)n1

>  <assayedSystem>
SOLNI (black nightshade)

>  <PPI activity (GR80) SOLNI>
100 g/ha

$$$$
>  <compoundStructureString>
CCN(CC)C(=O)n1cnc(S(=O)(=O)C(F)(F)SCC(=O)OC)n1

>  <assayedSystem>
SOLNI (black nightshade)

>  <PPI activity (GR80) SOLNI>
300 g/ha

$$$$
>  <compoundStructureString>
CCN(CC)C(=O)n1cnc(S(=O)(=O)C(F)F)n1

>  <assayedSystem>
SOLNI (black nightshade)

>  <PPI activity (GR80) SOLNI>
100 g/ha

$$$$
>  <compoundStructureString>
C=C(Br)CC(F)(F)S(=O)(=O)c1ncn(C(=O)N(CC)CC)n1

>  <assayedSystem>
SOLNI (black nightshade)

>  <PPI activity (GR80) SOLNI>
100 g/ha

$$$$
>  <compoundStructureString>
CCN(CC)C(=O)n1cnc(S(=O)(=O)C(F)(F)C(F)F)n1

>  <assayedSystem>
SOLNI (black nightshade)

>  <PPI activity (GR80) SOLNI>
30 g/ha

$$$$

====

System: PANDI (fall panicum)
Experiment: Pre-plant incorporated (PPI) herbicidal activity, warm season
Type: in vivo, Panicum dichotomiflorum
Conditions: pre-plant incorporated; lowest tested rate with 80% or greater inhibition; about 14 days
Experimental: In another set of tests, the pre-plant incorporated (PPI) activity of compounds of this invention was evaluated on the same species as for the pre-emergence tests described above. […] A pre-prepared topsoil mixture (described above) was placed in a pot and compacted to a depth of 1.0 to 1.25 cm from the top of the pot. […] A sufficient quantity of soil to cover the seeds and level fill the pot was weighed into an open container. […]
readoutName: PPI activity GR80, PANDI (g/ha)

>  <compoundStructureString>
CCSC(F)(F)S(=O)(=O)c1ncn(C(=O)N(CC)CC)n1

>  <u>
g/ha

>  <experimentalResult>
30

$$$$
>  <compoundStructureString>
C=CCC(F)(F)S(=O)(=O)c1ncn(C(=O)N(CC)CC)n1

>  <u>
g/ha

>  <experimentalResult>
300

$$$$
>  <compoundStructureString>
CCN(CC)C(=O)n1cnc(S(=O)(=O)C(F)(F)C(=O)c2ccccc2)n1

>  <u>
g/ha

>  <experimentalResult>
100

$$$$
>  <compoundStructureString>
CCN(CC)C(=O)n1cnc(S(=O)(=O)C(F)(F)SCCOC)n1

>  <u>
g/ha

>  <experimentalResult>
30

$$$$
>  <compoundStructureString>
CCN(CC)C(=O)n1cnc(S(=O)(=O)C(F)(F)Br)n1

>  <u>
g/ha

>  <experimentalResult>
100

$$$$
>  <compoundStructureString>
CCN(CC)C(=O)n1cnc(S(=O)(=O)C(F)F)n1

>  <u>
g/ha

>  <experimentalResult>
100

$$$$
>  <compoundStructureString>
C=C(CC(F)(F)S(=O)(=O)c1ncn(C(=O)N(CC)CC)n1)C[Si](C)(C)C

>  <u>
g/ha

>  <experimentalResult>
100

$$$$
>  <compoundStructureString>
CCN(CC)C(=O)n1cnc(S(=O)(=O)C(F)(F)C(F)F)n1

>  <u>
g/ha

>  <experimentalResult>
10

$$$$

====

tested on: PANMI (wild proso millet); test: Pre-plant incorporated (PPI) herbicidal activity, warm season; type: in vivo, Panicum miliaceum; details: Panicum miliaceum; PPI application, 100 g/ha; read-out: Percent inhibition PANMI
Reported inhibition at 100 g/ha values for a set of compounds

>  <compoundStructureString>
C=C(C)CC(F)(F)S(=O)(=O)c1ncn(C(=O)N(CC)CC)n1

>  <u>
%

>  <inhibition at 100 g/ha>
100

$$$$
>  <compoundStructureString>
C=CCC(F)(F)S(=O)(=O)c1ncn(C(=O)N(CC)CC)n1

>  <u>
%

>  <inhibition at 100 g/ha>
100

$$$$
>  <compoundStructureString>
CCSC(F)(F)S(=O)(=O)c1ncn(C(=O)N(CC)CC)n1

>  <u>
%

>  <inhibition at 100 g/ha>
100

$$$$
>  <compoundStructureString>
CCN(CC)C(=O)n1cnc(S(=O)(=O)C(F)F)n1

>  <u>
%

>  <inhibition at 100 g/ha>
99

$$$$
>  <compoundStructureString>
CCN(CC)C(=O)n1cnc(S(=O)(=O)C(F)(F)Br)n1

>  <u>
%

>  <inhibition at 100 g/ha>
99

$$$$
>  <compoundStructureString>
C=C(Br)CC(F)(F)S(=O)(=O)c1ncn(C(=O)N(CC)CC)n1

>  <u>
%

>  <inhibition at 100 g/ha>
100

$$$$

====

Some compounds, each annotated with its measured Percent inhibition SOLNI.
test system: SOLNI (black nightshade); test: Pre-plant incorporated (PPI) herbicidal activity, warm season; assay type: in vivo, Solanum nigrum; settings: PPI application, 300 g/ha

>  <compoundStructureString>
CCN(CC)C(=O)n1cnc(S(=O)(=O)C(F)(F)SCc2ccccc2)n1

>  <Percent inhibition SOLNI / %>
80

$$$$
>  <compoundStructureString>
CCN(CC)C(=O)n1cnc(S(=O)(=O)C(F)(F)SCCOC)n1

>  <Percent inhibition SOLNI / %>
95

$$$$
>  <compoundStructureString>
CCN(CC)C(=O)n1cnc(S(=O)(=O)C(F)(F)C(F)F)n1

>  <Percent inhibition SOLNI / %>
95

$$$$
>  <compoundStructureString>
C=C(CC(F)(F)S(=O)(=O)c1ncn(C(=O)N(CC)CC)n1)C[Si](C)(C)C

>  <Percent inhibition SOLNI / %>
30

$$$$
>  <compoundStructureString>
CCN(CC)C(=O)n1cnc(S(=O)(=O)C(F)(F)SC)n1

>  <Percent inhibition SOLNI / %>
100

$$$$
>  <compoundStructureString>
CCN(CC)C(=O)n1cnc(S(=O)(=O)C(F)(F)Cl)n1

>  <Percent inhibition SOLNI / %>
100

$$$$
>  <compoundStructureString>
CCN(CC)C(=O)n1cnc(S(=O)(=O)C(F)(F)SCC(=O)OC)n1

>  <Percent inhibition SOLNI / %>
50

$$$$
>  <compoundStructureString>
CCN(CC)C(=O)n1cnc(S(=O)(=O)C(F)(F)C(F)(F)Br)n1

>  <Percent inhibition SOLNI / %>
100

$$$$
>  <compoundStructureString>
CCN(CC)C(=O)n1cnc(S(=O)(=O)C(F)(F)F)n1

>  <Percent inhibition SOLNI / %>
100

$$$$

====

tested on: LOLMG (annual ryegrass); assay: Pre-plant incorporated (PPI) herbicidal activity, cool season; format: in vivo, Lolium multiflorum; details: Lolium multiflorum; weed, PPI application, 30 g/ha; read-out: Percent inhibition LOLMG
readoutName: inhibition at 30 g/ha (%)

>  <compoundStructureString>
C=C(Br)CC(F)(F)S(=O)(=O)c1ncn(C(=O)N(CC)CC)n1

>  <readoutName>
inhibition at 30 g/ha

>  <experimentalResult>
70

$$$$
>  <compoundStructureString>
CCSC(F)(F)S(=O)(=O)c1ncn(C(=O)N(CC)CC)n1

>  <readoutName>
inhibition at 30 g/ha

>  <experimentalResult>
35

$$$$
>  <compoundStructureString>
C=C(C)CC(F)(F)S(=O)(=O)c1ncn(C(=O)N(CC)CC)n1

>  <readoutName>
inhibition at 30 g/ha

>  <experimentalResult>
60

$$$$
>  <compoundStructureString>
CCN(CC)C(=O)n1cnc(S(=O)(=O)C(F)(F)Br)n1

>  <readoutName>
inhibition at 30 g/ha

>  <experimentalResult>
95

$$$$
>  <compoundStructureString>
C=CCC(F)(F)S(=O)(=O)c1ncn(C(=O)N(CC)CC)n1

>  <readoutName>
inhibition at 30 g/ha

>  <experimentalResult>
60

$$$$
